- Read-out: matrix metalloproteinase-10 (MMP10), MMP10 (gene 4319)
- method description: LTEA_HepaRG_MMP10: Life Technologies and Expression Analysis (LTEA) Assay for matrix metalloproteinase-10 (MMP10) using HepaRG (AID 2283517)
- test conditions: mRNA level, 48 h; actives raise or lower the signal
The source made the active and inactive calls. Rule for the calls: active = hit-call score of the fitted dose curve at least 0.9, where 1 is the maximum; inactive = score below 0.9.
Labels: active, inactive

{"compound": "CC(COc1ccc(Oc2ccccc2)cc1)Oc1ccccn1 (centres undefined)", "answer label": "inactive"}
{"compound": "COc1cccc(C(=O)NN(C(=O)c2cc(C)cc(C)c2)C(C)(C)C)c1C", "answer label": "inactive"}
{"compound": "Cc1ccn2nc(S(=O)(=O)Nc3c(F)cccc3F)nc2n1", "answer label": "inactive"}
{"compound": "COc1cc(OC)nc(Sc2cccc(Cl)c2C(=O)O)n1", "answer label": "inactive"}
{"compound": "CCNc1nc(Cl)nc(NC(C)(C)C#N)n1", "answer label": "inactive"}
{"compound": "O=[N+]([O-])c1cc(C(F)(F)F)c(Cl)c([N+](=O)[O-])c1Nc1ncc(C(F)(F)F)cc1Cl", "answer label": "active"}
{"compound": "Cc1nn(-c2cc(NS(C)(=O)=O)c(Cl)cc2Cl)c(=O)n1C(F)F", "answer label": "inactive"}
{"compound": "CCC(=NOC/C=C/Cl)C1=C(O)CC(C2CCOCC2)CC1=O (centres undefined)", "answer label": "inactive"}
{"compound": "CCOP(=O)(OCC)Oc1cc(C)nc(C(C)C)n1", "answer label": "inactive"}
{"compound": "O=C(O)c1cc(Oc2ccc(C(F)(F)F)cc2Cl)ccc1[N+](=O)[O-]", "answer label": "inactive"}
{"compound": "N#CSCSC#N", "answer label": "active"}
{"compound": "CN(C)C(=O)Nc1cccc(C(F)(F)F)c1", "answer label": "inactive"}
{"compound": "COP(=O)(OC)OC(Br)C(Cl)(Cl)Br (centres undefined)", "answer label": "inactive"}
{"compound": "Nc1c(Cl)cc([N+](=O)[O-])cc1Cl", "answer label": "inactive"}
{"compound": "CCC(=O)Nc1ccc(Cl)c(Cl)c1", "answer label": "inactive"}
{"compound": "CON=C(C(=O)OC)c1ccccc1CON=C(C)c1cccc(C(F)(F)F)c1", "answer label": "inactive"}
{"compound": "CSc1nnc(C(C)(C)C)c(=O)n1N", "answer label": "inactive"}
{"compound": "C=C(C)[C@H]1Cc2c(ccc3c2O[C@@H]2COc4cc(OC)c(OC)cc4[C@@H]2C3=O)O1", "answer label": "active"}
{"compound": "O=c1ccc(=O)[nH][nH]1", "answer label": "inactive"}
{"compound": "CCOP(=S)(Oc1cnc(C(C)(C)C)nc1)OC(C)C (centres undefined)", "answer label": "inactive"}
{"compound": "CSc1nc(NC(C)C)nc(NC(C)C)n1", "answer label": "inactive"}
{"compound": "CCOP(=S)(OCC)OC(Cl)C(Cl)(Cl)Cl (centres undefined)", "answer label": "inactive"}
{"compound": "CCCCOC(=O)c1ccccc1C(=O)O", "answer label": "inactive"}
{"compound": "CCCSP(=O)(OCC)SCCC", "answer label": "inactive"}
{"compound": "CCCCSP(=O)(SCCCC)SCCCC", "answer label": "inactive"}
{"compound": "CCOP(=S)(OCC)Oc1ccc2c(C)c(Cl)c(=O)oc2c1", "answer label": "inactive"}
{"compound": "C[N+]1(C)CCCCC1", "answer label": "inactive"}
{"compound": "CCOP(=S)(OCC)SCCSCC", "answer label": "inactive"}
{"compound": "CCc1cccc(C)c1N(C(=O)CCl)C(C)COC (centres undefined)", "answer label": "inactive"}

---

- method description: TOX21_p53_BLA_p4_viability: Viability Assessment in the Tox21 HCT-116 p53 Agonism Beta-lactamase Assay, Phase 4 (AID 2283597);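 note: hits lower the luminescence signal meaning cytotoxicity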
- Description: TOX21_p53_BLA_p4 is a cell-based, single-readout assay that uses HCT116, a human intestinal cell line, […] in a 1536-well plate.TOX21_p53_BLA_p4_viability is an assay readout measuring cellular ATP content and detected with CellTiter-Glo Luciferase-coupled ATP quantitation.TOX21_p53_BLA_p4_viability used a type of viability reporter where loss-of-signal activity can be used to understand changes in the cell viability. […]
Records with an inconclusive call do not appear. Active and inactive are the calls of the source. The calls were made as follows: active = hit-call score of the fitted dose curve at least 0.9, where 1 is the maximum; inconclusive = response in the unintended direction; inactive = score below 0.9.
outcome measure: outcome

{"molecule": "CCC(CC)Nc1c([N+](=O)[O-])cc(C)c(C)c1[N+](=O)[O-]", "outcome measure": "outcome", "data value": "inactive"}
{"molecule": "CCOP(=S)(OCC)Oc1cc(C)nc(C(C)C)n1", "outcome measure": "outcome", "data value": "inactive"}
{"molecule": "CCOP(=O)(NC(C)C)Oc1ccc(SC)c(C)c1 (stereo not given)", "outcome measure": "outcome", "data value": "inactive"}
{"molecule": "CCC(=O)Nc1ccc(Cl)c(Cl)c1", "outcome measure": "outcome", "data value": "inactive"}
{"molecule": "CC1(C(=O)Nc2ccc(O)c(Cl)c2Cl)CCCCC1", "outcome measure": "outcome", "data value": "inactive"}
{"molecule": "O=c1ccc(=O)[nH][nH]1", "outcome measure": "outcome", "data value": "inactive"}
{"molecule": "C#CCC1=C(C)C(OC(=O)C2C(C=C(C)C)C2(C)C)CC1=O (stereo not given)", "outcome measure": "outcome", "data value": "inactive"}
{"molecule": "C#CC(C)(C)NC(=O)c1cc(Cl)cc(Cl)c1", "outcome measure": "outcome", "data value": "inactive"}
{"molecule": "CCOC(=O)COc1cc(-c2nn(C)c(OC(F)F)c2Cl)c(F)cc1Cl", "outcome measure": "outcome", "data value": "inactive"}
{"molecule": "COc1cc(OC)nc(Sc2cccc(Cl)c2C(=O)O)n1", "outcome measure": "outcome", "data value": "inactive"}
{"molecule": "CCOP(=S)(Oc1cnc(C(C)(C)C)nc1)OC(C)C (stereo not given)", "outcome measure": "outcome", "data value": "inactive"}
{"molecule": "CSC1=N[C@@](C)(c2ccccc2)C(=O)N1Nc1ccccc1", "outcome measure": "outcome", "data value": "inactive"}
{"molecule": "CON=C(C(=O)OC)c1ccccc1CON=C(C)c1cccc(C(F)(F)F)c1", "outcome measure": "outcome", "data value": "inactive"}
{"molecule": "CC(COc1ccc(Oc2ccccc2)cc1)Oc1ccccn1 (stereo not given)", "outcome measure": "outcome", "data value": "inactive"}
{"molecule": "CC(C1CC1)C(O)(Cn1cncn1)c1ccc(Cl)cc1 (stereo not given)", "outcome measure": "outcome", "data value": "inactive"}

---

- Read-out: Monocyte Chemoattractant Protein-1 (MCP1), CCL2 (gene 6347)
- method description: BSK_3C_MCP1: BioMAP Diversity Plus: 3C Assay for Monocyte Chemoattractant Protein-1 (MCP1) Biomarker Activity (AID 2283017)
- test conditions: primary human endothelial cells (HUVEC); actives raise or lower the signal
Calls of active or inactive are those of the source. The calls were made as follows: active = hit-call score of the fitted dose curve at least 0.9, where 1 is the maximum; inactive = score below 0.9.
Classes used: 1 (yes) (active), 0 (no) (inactive)

{"compound": "CCOP(=O)(SC(C)CC)N1CCSC1=O (centres undefined)", "answer label": "0 (no)"}
{"compound": "CCCSP(=O)(OCC)Oc1ccc(Br)cc1Cl (centres undefined)", "answer label": "0 (no)"}
{"compound": "CNc1cnn(-c2cccc(C(F)(F)F)c2)c(=O)c1Cl", "answer label": "0 (no)"}
{"compound": "CCC(=NOC/C=C/Cl)C1=C(O)CC(C2CCOCC2)CC1=O (centres undefined)", "answer label": "0 (no)"}
{"compound": "CCCSP(=O)(OCC)SCCC", "answer label": "0 (no)"}
{"compound": "CCOP(=S)(OCC)OC(Cl)C(Cl)(Cl)Cl (centres undefined)", "answer label": "0 (no)"}
{"compound": "CCc1cccc(CC)c1N(COC)C(=O)CCl", "answer label": "1 (yes)"}
{"compound": "CCCCOC(=O)c1ccccc1C(=O)O", "answer label": "0 (no)"}
{"compound": "CCOP(=S)(OCC)Oc1ccc2c(C)c(Cl)c(=O)oc2c1", "answer label": "0 (no)"}
{"compound": "CCc1cccc(C)c1N(C(=O)CCl)C(C)COC (centres undefined)", "answer label": "0 (no)"}
{"compound": "CCCCOC(=O)[C@@H](C)Oc1ccc(Oc2ccc(C#N)cc2F)cc1", "answer label": "0 (no)"}
{"compound": "CNC(=O)ON=C(C)SC", "answer label": "0 (no)"}
{"compound": "COP(=O)(OC)OC(Br)C(Cl)(Cl)Br (centres undefined)", "answer label": "1 (yes)"}
{"compound": "CN(C)C(=O)Nc1cccc(C(F)(F)F)c1", "answer label": "0 (no)"}
{"compound": "Cc1ccn2nc(S(=O)(=O)Nc3c(F)cccc3F)nc2n1", "answer label": "0 (no)"}
{"compound": "CSc1nc(NC(C)C)nc(NC(C)C)n1", "answer label": "0 (no)"}
{"compound": "CSc1nnc(C(C)(C)C)c(=O)n1N", "answer label": "0 (no)"}
{"compound": "CN(C)NC(=O)CCC(=O)O", "answer label": "0 (no)"}
{"compound": "CC(C1CC1)C(O)(Cn1cncn1)c1ccc(Cl)cc1 (centres undefined)", "answer label": "0 (no)"}
{"compound": "COP(=O)(OC)SCn1c(=O)oc2cc(Cl)cnc21", "answer label": "0 (no)"}
{"compound": "COc1cccc(C(=O)NN(C(=O)c2cc(C)cc(C)c2)C(C)(C)C)c1C", "answer label": "0 (no)"}
{"compound": "CN(C)[C@@H]1C(=O)C(C(N)=O)=C(O)[C@@]2(O)C(=O)C3=C(O)c4c(O)cccc4[C@@](C)(O)[C@H]3[C@H](O)[C@@H]12", "answer label": "0 (no)"}
{"compound": "S=C1NCCN1", "answer label": "0 (no)"}
{"compound": "CC(COc1ccc(Oc2ccccc2)cc1)Oc1ccccn1 (centres undefined)", "answer label": "0 (no)"}
